Target: CD47 protein (Acrobiosystems, cat#CD7-HA2E9) (UniProt Q08722)
Sequence (Q08722 19-139 limits assumed): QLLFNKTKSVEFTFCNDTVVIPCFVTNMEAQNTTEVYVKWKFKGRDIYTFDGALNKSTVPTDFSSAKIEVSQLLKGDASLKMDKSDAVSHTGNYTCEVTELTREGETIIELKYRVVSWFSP
Test: ELISA, CD47 protein coated 100 ng/well, 0.8 µg antibody per well
quantity name: OD450 measurements (OD450)
Write it as a number; the unit OD450 goes unstated.

# annotated cases, reported OD450 measurements shown
{"columns": ["binder", "OD450 measurements, OD450"],
 "data": [
  ["Hu3A5 (V15) antibody (antibody, V domains shown, Humanized 3A5) VH: QVQLVQSGSELKKPGASVKVSCKASGYTFTSYWMNWVRQAPGQGLEWMGVIDPSDSYTSYNQGFTGRFVFSVDTSVSTAYLQISSLKAEDTAVYYCARGGKRAMDYWGQGTTVTVSS VL: DVVMTQSPDSLAVSLGERATINCKSSQSLVHSNGNTYLHWYQQKPGQPPKLLIYKVSNRFSGVPDRFSGSGSGTDFTLTISSLQAEDVAVYFCSQSTHVPFTFGGGTKLEIK", 0.111],
  ["Hu3A5 (V16) antibody (antibody, V domains shown, Humanized 3A5) VH: QVQLVQSGSELKKPGASVKVSCKASGYTFTSYWMNWVRQAPGQGLEWMGVIDPSDSYTSYNQGFTGRFVFSVDTSVSTAYLQISSLKAEDTAVYYCARGGKRAMDYWGQGTTVTVSS VL: DVVMTQSPDSLAVSLGERATINCKSSQSLVHSNGNTYLHWYQQKPGQPPKLLIYKVSNRFSGVPDRFSGSGSGTDFTLTISSLQAEDVAVYYCSQSTHVPFTFGGGTKLEIK", 0.106]
]}

Alright, here's another binder for you.
GET /value?item= Hu3A5 (V7) antibody (antibody, V domains shown, Humanized 3A5) VH: QVQLVQSGAEVKKPGASVKVSCKASGYTFTSYWMHWVRQAPGQGLEWMGVIDPSDSYTSYNQKFQGRVTMTVDTSTSTAYMELSSLRSEDTAVYYCARGGKRAMDYWGQGTTVTVSS VL: DVVMTQSPDSLAVSLGERATINCKSSQSLVHSNGNTYLHWYQQKPGQPPKLLIYKVSNRFSGVPDRFSGSGSGTDFTLTISSLQAEDVAVYFCSQSTHVPFTFGGGTKLEIK &field=OD450 measurements returns 2.67
